What pIC50 was measured for each of the following?
Assay: Cytotoxicity against human vinblastine-resistant KBV1 cells after 72 hrs by MTT assay
Format: functional, cell-based
Run Conditions: KB-V1, 72 h
One number for each entry, as −log10 of the molar value.

// solved cases for pIC50 follow
- COc1cc(-c2ncn(C)c2-c2ccc3c(Cl)cn(C)c3c2)cc(N)c1OC.Cl: 6.80
- COc1ccc(/C=C\c2cc(OC)c(OC)c(OC)c2)cc1O: 9.40
- COc1ccc(-c2c(-c3cc(Cl)c(OC)c(OC)c3)ncn2C)cc1N.Cl.Cl: 6.40
- COc1ccc(-c2ocnc2-c2cc(N)c(OC)c(OC)c2)cc1N.Cl: 11.00
- COc1ccc(-c2c(-c3cc(Br)c(OC)c(OC)c3)ncn2C)cc1N.Cl.Cl: 6.70

Item: COc1ccc(-c2c(-c3cc(OC)c(OC)c(OC)c3)ncn2C)cc1N | pIC50: 6.52
